Taken from ChEMBL document CHEMBL1201862.

System: SK-MEL-2
Assay: NCI tumour cell line growth inhibition, 48 h
The source made the active and inactive calls. Cut-off read from the data, not from the text of the source: active = GI50 up to about 1.1 µM and inactive = higher.
valueType: GI50

>  <compound>
Cc1ccc(S(=O)(=O)N2CCC2c2ccccc2)cc1 (stereo not drawn)

>  <recordedValue>
> 100 µM (inactive)

$$$$
>  <compound>
CC(C)C(/N=C/c1ccccc1O)C(=O)O (stereo not drawn)

>  <recordedValue>
20.6 µM (inactive)

$$$$
>  <compound>
O=C1/C(=C/c2ccc(Cl)cc2)CSc2ccccc21

>  <recordedValue>
15.7 µM (inactive)

$$$$
>  <compound>
c1ccc(/N=C(/Nc2ccccc2)N2CCCC2)cc1

>  <recordedValue>
> 100 µM (inactive)

$$$$
>  <compound>
Cc1c(C)c2c(c(N)c1C#N)C(=O)N(N)C2=O

>  <recordedValue>
> 100 µM (inactive)

$$$$
>  <compound>
CCOc1ccc(/N=N/C2C(=O)N(C(=O)CC(=O)Nc3ccc(C)cc3)N=C2C)cc1 (stereo not drawn)

>  <recordedValue>
26.6 µM (inactive)

$$$$
>  <compound>
COc1cc(C2SCC(=O)N2c2ccccc2Cl)cc(OC)c1OC (stereo not drawn)

>  <recordedValue>
> 100 µM (inactive)

$$$$
>  <compound>
CCCCn1c(-c2ccccc2)cs/c1=N\NC(=O)Cn1c(C)nc2ccccc21

>  <recordedValue>
> 100 µM (inactive)

$$$$
>  <compound>
CCCCC(=O)OC[n+]1cccc(-c2c(COC(=O)NC(C)C)c(COC(=O)NC(C)C)c3n2CCC3)c1

>  <recordedValue>
26.4 µM (inactive)

$$$$
>  <compound>
COc1ccc(OC)c(N(CN2C(=O)CCC2C(=O)O)C(C)=O)c1 (stereo not drawn)

>  <recordedValue>
> 100 µM (inactive)

$$$$
>  <compound>
O=P(c1ccccc1)(c1ccccc1)N1O[C@@H](c2ccccc2)C=C[C@H]1c1ccccc1

>  <recordedValue>
12 µM (inactive)

$$$$
>  <compound>
COC(=O)[C@H](C)[C@@H]1CC[C@](C)(CCC2=C(C)CCCC2(C)C)OO1

>  <recordedValue>
> 25 µM (inactive)

$$$$
>  <compound>
NC(=O)C12CC3CC(CC(F)(C3)C1)C2

>  <recordedValue>
> 100 µM (inactive)

$$$$
>  <compound>
O=C(O)c1nc2ccccc2nc1Nc1ccc(F)cc1

>  <recordedValue>
26.9 µM (inactive)

$$$$
>  <compound>
Cc1nc2c(sc(=S)n2-c2ccccc2)c2nc3ccccc3n12

>  <recordedValue>
> 100 µM (inactive)

$$$$
>  <compound>
CC1CC2CC(=O)CC3(C1)C2CCCN3CCCO (stereo not drawn)

>  <recordedValue>
> 100 µM (inactive)

$$$$
>  <compound>
NC(CSC1(c2ccc(Cl)cc2)c2ccccc2-c2ccccc21)C(=O)O (stereo not drawn)

>  <recordedValue>
20.9 µM (inactive)

$$$$
>  <compound>
O=S1(=O)[C@H](c2ccccc2)c2c(-c3ccccc3)sc(-c3ccccc3)c2[C@@H]1c1ccccc1

>  <recordedValue>
> 100 µM (inactive)

$$$$
>  <compound>
O=C(O)C1OC(n2cc(F)c(=O)[nH]c2=O)CC1O (stereo not drawn)

>  <recordedValue>
> 100 µM (inactive)

$$$$
>  <compound>
CC(C)=CC(O)C/C(C)=C/CC/C(C)=C/CCC1(C)C(CCCO)/C(=C(/C)C=O)CCC1(C)O (stereo not drawn)

>  <recordedValue>
59.3 µM (inactive)

$$$$
>  <compound>
Nc1nc(N)c(CCCCc2ccccc2)c(/C=C/c2ccc([N+](=O)[O-])cc2)n1

>  <recordedValue>
2.79 µM (inactive)

$$$$
>  <compound>
C/C(=N\NC(=S)NCCCNC(=S)N/N=C(\C)c1ccccn1)c1ccccn1

>  <recordedValue>
2.06 µM (inactive)

$$$$
>  <compound>
CCOC(=O)c1cccc(=O)c(C(=O)OCC)c1

>  <recordedValue>
47 µM (inactive)

$$$$
>  <compound>
COc1cc(-c2[o+]c3cc(O)cc(O)c3cc2O)cc(O)c1O

>  <recordedValue>
> 100 µM (inactive)

$$$$
>  <compound>
CCOc1cc(C(c2c(O)c3ccccc3oc2=O)c2c(O)c3ccccc3oc2=O)ccc1OC

>  <recordedValue>
20.6 µM (inactive)

$$$$
>  <compound>
CCOC(=O)C(=O)Nc1c(C)cccc1C(C)(C)C

>  <recordedValue>
> 100 µM (inactive)

$$$$
>  <compound>
O=c1cc(NNc2ccccc2F)[nH]c(=O)[nH]1

>  <recordedValue>
16.7 µM (inactive)

$$$$
>  <compound>
COc1ccccc1N1C(=O)CSC1c1c[nH]c2ccccc12 (stereo not drawn)

>  <recordedValue>
> 100 µM (inactive)

$$$$
>  <compound>
O=c1c2ccccc2c2c3c1cccc3c1cccc3c(=O)c4ccccc4c2c31

>  <recordedValue>
> 100 µM (inactive)

$$$$
>  <compound>
O=C(O)c1ccc(Nc2nc3ccc(C(F)(F)F)cc3nc2C(=O)O)cc1

>  <recordedValue>
> 100 µM (inactive)

$$$$
>  <compound>
CCOC(=O)C1=C(C)N(Cc2ccccc2)C2(O)C=CC(=O)C3C(=O)N(c4ccccc4)C(=O)C132 (stereo not drawn)

>  <recordedValue>
1.98 µM (inactive)

$$$$
>  <compound>
O=c1c2cccnc2oc2c(Cl)cc(-c3nnn[nH]3)cc12

>  <recordedValue>
> 100 µM (inactive)

$$$$
>  <compound>
CC#COS(=O)(=O)c1ccc(C)cc1

>  <recordedValue>
> 100 µM (inactive)

$$$$
>  <compound>
N#CCCN(CCC#N)c1ccc(/C=C(/NC(=O)c2cc([N+](=O)[O-])ccc2Cl)C(=O)NN)cc1

>  <recordedValue>
> 100 µM (inactive)

$$$$
>  <compound>
CCC1(c2ccc(N3C(=O)c4cc(OC)c(OC)cc4C3=O)cc2)CCC(=O)NC1=O (stereo not drawn)

>  <recordedValue>
> 10 µM (inactive)

$$$$
>  <compound>
COC(=O)[C@H]1NC(=O)CCSSC1(C)C

>  <recordedValue>
> 100 µM (inactive)

$$$$
>  <compound>
O=C(NC1CCCCC1)c1c(O)[nH]c(=S)[nH]c1=O

>  <recordedValue>
> 100 µM (inactive)

$$$$
>  <compound>
Cc1ccc(NC(=O)C(=O)C(C(=O)c2ccc3ccccc3c2)C2OC(=O)c3ccccc32)c(C)c1 (stereo not drawn)

>  <recordedValue>
13 µM (inactive)

$$$$
